Attribution: BigSolDB 2.1

- Condition Description: in n-butanol, 288.15 K
Test Readout: solubility (mole fraction)
Just the number.

// recorded solubility (mole fraction) for `CC(CO)(CO)CO` : 0.0449

###

- Condition Description: in methyl acetate, 313.15 K
Test Readout: solubility (mole fraction)

For this compound ( `CC(CO)(CO)CO` ), measured solubility (mole fraction) is 0.00997

###

- Condition Description: in ethyl acetate, 313.15 K
Test Readout: solubility (mole fraction)
The reply should be a number, written without any unit.

The molecule listed as `CC(CO)(CO)CO` shows solubility (mole fraction) equal to 0.00841

###

- Condition Description: in n-butanol, 283.15 K
Test Readout: solubility (mole fraction)
Answer as a number with no unit attached.

Measured solubility (mole fraction) of `CC(CO)(CO)CO` : 0.0386

###

- Condition Description: in methyl acetate, 318.15 K
Test Readout: solubility (mole fraction)
Note: the reply should be a number with no unit written.

Reported solubility (mole fraction) of `CC(CO)(CO)CO` : 0.013

###

- Condition Description: in methyl acetate, 283.15 K
Test Readout: solubility (mole fraction)
API doc: respond with a numeric literal and nothing else, no unit.

For record `CC(CO)(CO)CO` the listed solubility (mole fraction) is 0.0026

###

- Condition Description: in ethyl acetate, 288.15 K
Test Readout: solubility (mole fraction)

// recorded solubility (mole fraction) for `CC(CO)(CO)CO` : 0.00263

###

- Condition Description: in methyl acetate, 303.15 K
Test Readout: solubility (mole fraction)
Write no unit; give the number alone.

Please fill in: solubility (mole fraction) reported for `CC(CO)(CO)CO` = 0.00638

###

- Condition Description: in ethyl acetate, 318.15 K
Test Readout: solubility (mole fraction)
Please reply with the value in numeric form only.

The reported value for `CC(CO)(CO)CO` in terms of solubility (mole fraction) is 0.0105

###

- Condition Description: in ethyl acetate, 293.15 K
Test Readout: solubility (mole fraction)
Give the value as a plain number.

GET /value?item= `CC(CO)(CO)CO` &field=solubility (mole fraction) returns 0.00335

###

- Condition Description: in n-butanol, 311.05 K
Test Readout: solubility (mole fraction)
Just the number, please, no unit attached.

Lab note: `CC(CO)(CO)CO` gave solubility (mole fraction) of 0.0914

###

- Condition Description: in n-butanol, 293.15 K
Test Readout: solubility (mole fraction)
Please reply with the number alone, leaving off any unit.

Sure, the documented solubility (mole fraction) for `CC(CO)(CO)CO` is 0.0535

###

- Condition Description: in n-butanol, 298.15 K
Test Readout: solubility (mole fraction)
Please give only the number in your answer, with no unit.

// solubility (mole fraction) value for `CC(CO)(CO)CO` : 0.0634

###

- Condition Description: in ethyl acetate, 303.15 K
Test Readout: solubility (mole fraction)

Summary for this compound, `CC(CO)(CO)CO` : solubility (mole fraction) is 0.00528

###

- Condition Description: in methyl acetate, 311.05 K
Test Readout: solubility (mole fraction)

Given item `CC(CO)(CO)CO` , the value recorded as its solubility (mole fraction) is 0.00801

###

- Condition Description: in methyl acetate, 288.15 K
Test Readout: solubility (mole fraction)
Provide a numeric answer; units are not to be included.

Field solubility (mole fraction) (entry `CC(CO)(CO)CO` ) reads 0.00317

###

- Condition Description: in ethyl acetate, 311.05 K
Test Readout: solubility (mole fraction)
Lab note: record the figure alone, no unit after it.

solubility (mole fraction) for `CC(CO)(CO)CO` is 0.00673
